# System: MS2 coat protein
# run-description: apparent Kd, MS2 coat protein; higher = weaker binding; RNA-MaP array
# test-settings: ligand present: flavin mononucleotide; designed as: ON switch for flavin mononucleotide
# maps each entry to its apparent Kd
endpoint: apparent Kd (nM)

In [3]: df
Out[3]:
                                    residues     endpoint  units  recorded_number
 0  AUCGAUAAGAAGAAGGCAUUGGCGAUGACGUUAUGAGGAUAUUCAACUACAGCUUGACCACUACAUGAGGAUCACCCAUGUGAA  apparent Kd     nM             12.1
 1  GCUAGCGGUAAGAAGGCAUAGACCAAAACUUCAUGAGGAUAUUAUUUGCGGCAUUCGCUCCAAGGACAUGAGGAUCACCCAUGU  apparent Kd     nM             16.3
 2  AGGCUUAAAAUGGAGGAUAUCUGUCGCAAAACAUGAGGAUCACCCAUGUACAUAAUGGGCACCACAGAGAAGGCCAUGUACUUUUC  apparent Kd     nM             11.7
 3  ACGAACAUGAGGAUCACCCAUGUUGUUUCUAAGACUCGGUCAAGAAGGUGUCGUUACGAGUCGAACAAGGAUAUUGAUCCGAAC  apparent Kd     nM             20.6
 4  GAAGAACCCGGAGGAUAUGCAAAGGAACAUGAGGAUCACCCAUGUUUCUUUCGGAAAUCUAGUGAGCAGAAGGCCGAAAGGAAC  apparent Kd     nM             7.95
 5  AUAGGGCGACAGAAGGGCAGUGCACGCAUUGCUGCAGGAUAUGUGGUCCACAUGAGGAUCACCCAUGUAGUAAUAUCUUGUAGU  apparent Kd     nM             71.2
 6  CUUCCCACGUAGAAGGUGCACCAGUUAACCAAUAACAGGUUGACAUGAGGAUCACCCAUGUUUCGCAAGGAUAUACUGUUCACG  apparent Kd     nM             34.8
 7  CACAAACCAGAGAAGGCCCUAAGAGUAUAGAGAAUACGAAACAUGAGGAUCACCCAUGUCAUAUGGGAGGAUAUCAACAAGAUU  apparent Kd     nM             11.3
 8  ACUUGACAUGAGGAUCACCCAUGUGAUCCGUCAUUAGGAUAUCGAAGGUAUAUCACGCCUCGAGAAGGAAUAGCGG  apparent Kd     nM             65.5
 9  GCAGGCGUUAAGAAGGUUCUCCCACAUGAGGAUCACCCAUGUUGACAUGCUAGAGUCAUUACAAGAAAGGAUAUUAGCGAAUUG  apparent Kd     nM             25.8
10  UUUCGUAACCAACAUGAGGAUCACCCAUGUAGAAAGUUCCUAAGAAGGACAUAACCCAAUAGCAUGUAGGAUAUAAGUAAUCAC  apparent Kd     nM             10.8
11  AAAAUGGAUUGAACAUGAGGAUCACCCAUGUCCUGCCCGCAUUAGGAUAUCGAUAACUUGAGUACCGAGAAGGAAUGAUGAUCG  apparent Kd     nM             13.2
12  CUUGGAAGACAGAAGGGCAUCCACCCGGGACCAGCAGGAUAUGUCAACGGUAGCCGAAAACAUGAGGAUCACCCAUGUCAGAAG  apparent Kd     nM             30.1

Attribution: the EternaBench riboswitch data
